Reference for the values: ChEMBL document CHEMBL1124009

Item-by-item account of IC50
- Target system: Delta-type opioid receptor (Rattus norvegicus)
- Sequence (P33533 whole entry): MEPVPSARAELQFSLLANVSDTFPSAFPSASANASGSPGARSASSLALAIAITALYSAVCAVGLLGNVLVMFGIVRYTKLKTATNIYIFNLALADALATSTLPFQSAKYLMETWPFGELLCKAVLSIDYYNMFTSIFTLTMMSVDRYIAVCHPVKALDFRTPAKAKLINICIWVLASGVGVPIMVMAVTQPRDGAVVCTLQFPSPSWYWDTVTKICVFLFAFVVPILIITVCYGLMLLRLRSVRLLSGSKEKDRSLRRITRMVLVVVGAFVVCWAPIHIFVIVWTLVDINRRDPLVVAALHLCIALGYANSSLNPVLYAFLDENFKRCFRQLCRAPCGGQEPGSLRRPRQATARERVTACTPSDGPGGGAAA
- Test protocol: Binding affinity in competition with [3H]- DPDPE in Opioid receptor delta 1 binding to rat brain membrane
Experimental readout: IC50

[
  {
    "Molecule": "C[C@@H](O)[C@H](NC(=O)[C@H]1NC(=O)[C@H](CC(N)=O)NC(=O)[C@H](Cc2ccccc2)NC(=O)[C@@H](NC(=O)[C@H](N)Cc2ccc(O)cc2)CSSC1(C)C)C(N)=O",
    "Target system": "Delta-type opioid receptor (Rattus norvegicus)",
    "Experimental readout": "IC50",
    "Observed result": "≥ 10 µM"
  },
  {
    "Molecule": "C[C@@H](O)[C@H](NC(=O)[C@H]1NC(=O)[C@H]([C@@H](C)O)NC(=O)[C@H](CCCCN)NC(=O)[C@@H](Cc2c[nH]c3ccccc23)NC(=O)[C@H](Cc2ccc(O)cc2)NC(=O)[C@@H](NC(=O)[C@H](N)Cc2ccccc2)CSSC1(C)C)C(N)=O",
    "Target system": "Delta-type opioid receptor (Rattus norvegicus)",
    "Experimental readout": "IC50",
    "Observed result": "1.15 µM"
  },
  {
    "Molecule": "C[C@@H](O)[C@H](NC(=O)[C@H]1NC(=O)[C@H](CC(N)=O)NC(=O)[C@H](Cc2ccc(O)cc2)NC(=O)[C@@H](NC(=O)[C@H](N)Cc2ccccc2)CSSC1(C)C)C(N)=O",
    "Target system": "Delta-type opioid receptor (Rattus norvegicus)",
    "Experimental readout": "IC50",
    "Observed result": "> 10 µM"
  },
  {
    "Molecule": "C[C@@H](O)[C@H](NC(=O)[C@H]1NC(=O)[C@H]([C@@H](C)O)NC(=O)[C@H](CCCN)NC(=O)[C@@H](Cc2c[nH]c3ccccc23)NC(=O)[C@H](Cc2ccc(O)cc2)NC(=O)[C@@H](NC(=O)[C@H](N)Cc2ccccc2)CSSC1(C)C)C(N)=O",
    "Target system": "Delta-type opioid receptor (Rattus norvegicus)",
    "Experimental readout": "IC50",
    "Observed result": "5.6 µM"
  },
  {
    "Molecule": "C[C@@H](O)[C@@H]1NC(=O)[C@H](CCCCN)NC(=O)C(Cc2c[nH]c3ccccc23)NC(=O)[C@H](Cc2ccc(O)cc2)NC(=O)[C@@H](NC(=O)[C@H](N)Cc2ccccc2)CSSC(C)(C)[C@@H](C(=O)N[C@@H](CC(=O)O)C(N)=O)NC1=O (stereo in doubt)",
    "Target system": "Delta-type opioid receptor (Rattus norvegicus)",
    "Experimental readout": "IC50",
    "Observed result": "> 10 µM"
  },
  {
    "Molecule": "C[C@@H](O)[C@@H]1NC(=O)[C@H](CCCCN)NC(=O)C(Cc2c[nH]c3ccccc23)NC(=O)[C@H](Cc2ccc(O)cc2)NC(=O)[C@@H](NC(=O)[C@H](N)Cc2ccccc2)CSSC(C)(C)[C@@H](C(=O)N[C@@H](CC(N)=O)C(N)=O)NC1=O (stereo in doubt)",
    "Target system": "Delta-type opioid receptor (Rattus norvegicus)",
    "Experimental readout": "IC50",
    "Observed result": "> 10 µM"
  },
  {
    "Molecule": "CC(C)[C@H](NC(=O)[C@H]1NC(=O)[C@H]([C@@H](C)O)NC(=O)[C@H](CCCCN)NC(=O)[C@@H](Cc2c[nH]c3ccccc23)NC(=O)[C@H](Cc2ccc(O)cc2)NC(=O)[C@@H](NC(=O)[C@H]2Cc3ccccc3CN2)CSSC1(C)C)C(N)=O",
    "Target system": "Delta-type opioid receptor (Rattus norvegicus)",
    "Experimental readout": "IC50",
    "Observed result": "2.12 µM"
  },
  {
    "Molecule": "C[C@@H](O)[C@@H]1NC(=O)[C@H](CCCCN)NC(=O)C(Cc2c[nH]c3ccccc23)NC(=O)[C@H](Cc2ccc(O)cc2)NC(=O)[C@@H](NC(=O)[C@H](N)Cc2ccccc2)CSSC(C)(C)[C@@H](C(N)=O)NC1=O (stereo in doubt)",
    "Target system": "Delta-type opioid receptor (Rattus norvegicus)",
    "Experimental readout": "IC50",
    "Observed result": "> 10 µM"
  }
]
